Assay: recombinant UMI read abundance after kanamycin selection (control-corrected) (log10(CPM+1)); higher = more efficient recombination; extreme values may be limits of the assay; sequences stand for … in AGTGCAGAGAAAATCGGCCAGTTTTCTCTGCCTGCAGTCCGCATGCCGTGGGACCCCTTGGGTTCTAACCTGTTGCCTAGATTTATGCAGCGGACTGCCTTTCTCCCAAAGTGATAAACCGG…AGGTTGGTTTCACT; site = the 11-nt donor;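 note: IS621 bridge recombinase in Escherichia coli cells against a fixed T5 target plasmid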
measured_parameter: recombinant UMI read abundance (log10)
Format: numeric value only, no unit, no commentary.

Consider the sequence AGGAGGACATGGACCGGTTTTCCCGGTAATCCGTATTTGCA (site AGGAAGACTTG) . State its measured recombinant UMI read abundance (log10).
2.35

Consider the sequence CTGGAAACATGGACCGGTTTTCCCGGTAATCCGTATTTGGA (site CTGGAAACTTT) . State its measured recombinant UMI read abundance (log10).
2.09

Consider the sequence CCAGGTGCATGGACCGGTTTTCCCGGTAATCCGTATTTGTT (site CCAGGTGCTAA) . State its measured recombinant UMI read abundance (log10).
0.856

Consider the sequence GAGCTCACATGGACCGGTTTTCCCGGTAATCCGTATTTGCT (site GAGCTCACTAT) . State its measured recombinant UMI read abundance (log10).
1.14

Consider the sequence TATTTGGCATGGACCGGTTTTCCCGGTAATCCGTATTTGTG (site TGTTTGGCTCA) . State its measured recombinant UMI read abundance (log10).
0.00811

Consider the sequence GATTGGTCATGGACCGGTTTTCCCGGTAATCCGTATTTGAC (site GATTGGACTGT) . State its measured recombinant UMI read abundance (log10).
0

Consider the sequence CCCTCAACATGGACCGGTTTTCCCGGTAATCCGTATTTGGG (site CCCTCAACTCC) . State its measured recombinant UMI read abundance (log10).
0.0112

Consider the sequence TAAAGTCCATGGACCGGTTTTCCCGGTAATCCGTATTTGTT (site TAAAGTCCTTA) . State its measured recombinant UMI read abundance (log10).
0

Consider the sequence TAGTTGGCATGGACCGGTTTTCCCGGTAATCCGTATTTGTG (site TAGTTGGCTCA) . State its measured recombinant UMI read abundance (log10).
0.476

* * *

Assay: recombinant UMI read abundance after kanamycin selection (control-corrected) (log10(CPM+1)); higher = more efficient recombination; extreme values may be limits of the assay; sequences stand for … in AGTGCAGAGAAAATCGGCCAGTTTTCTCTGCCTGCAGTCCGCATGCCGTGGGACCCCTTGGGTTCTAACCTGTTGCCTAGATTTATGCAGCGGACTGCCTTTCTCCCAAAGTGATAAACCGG…AGGTTGGTTTCACT; site = the 11-nt donor
Outcome: met for recombinant UMI read abundance (log10) of at least 1; not met for anything lower.

Hi, just wondering whether CCCGGGGCATGGACCGGTTTTCCCGGTAATCCGTATTTGCA (site CCCGGGGCTTG) shows recombinant UMI read abundance (log10) of 1 or higher.
met

Hi, just wondering whether CTACTAACATGGACCGGTTTTCCCGGTAATCCGTATTTGTA (site CTACTAACTTT) shows recombinant UMI read abundance (log10) of 1 or higher.
met

Hi, just wondering whether CTGAATCCATGGACCGGTTTTCCCGGTAATCCGTATTTGTG (site CGGAATCCTAA) shows recombinant UMI read abundance (log10) of 1 or higher.
not met

Hi, just wondering whether CGGCTGACATGGACCGGTTTTCCCGGTAATCCGTATTTGCC (site CGGCTGACTGG) shows recombinant UMI read abundance (log10) of 1 or higher.
met

Hi, just wondering whether TAGGAATCATGGACCGGTTTTCCCGGTAATCCGTATTTGCG (site TAGGATTCTCG) shows recombinant UMI read abundance (log10) of 1 or higher.
met

* * *

Test: recombinant UMI read abundance after kanamycin selection (control-corrected) (log10(CPM+1)); higher = more efficient recombination; extreme values may be limits of the assay; sequences stand for … in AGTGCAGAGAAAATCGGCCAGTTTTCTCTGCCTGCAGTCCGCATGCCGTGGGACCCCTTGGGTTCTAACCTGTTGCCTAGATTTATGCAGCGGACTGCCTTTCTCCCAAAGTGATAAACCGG…AGGTTGGTTTCACT; site = the 11-nt donor
measured_parameter: recombinant UMI read abundance (log10)
Format: numeric value only, no unit, no commentary.

Consider the sequence TTCGAGGCATGGACCGGTTTTCCCGGTAATCCGTATTTGAT (site TTCGAGGCTAT) . State its measured recombinant UMI read abundance (log10).
0.482

Consider the sequence CTTTTCTCATGGACCGGTTTTCCCGGTAATCCGTATTTGTA (site CTTGTCTCTTA) . State its measured recombinant UMI read abundance (log10).
0.00384

Consider the sequence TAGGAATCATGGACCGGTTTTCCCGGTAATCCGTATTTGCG (site TAGGAATCTCC) . State its measured recombinant UMI read abundance (log10).
1.39

Consider the sequence GGACAGACATGGACCGGTTTTCCCGGTAATCCGTATTTGCC (site GGAAAGACTGG) . State its measured recombinant UMI read abundance (log10).
0

Consider the sequence CACTCCTCATGGACCGGTTTTCCCGGTAATCCGTATTTGTC (site CACTCCTCTGT) . State its measured recombinant UMI read abundance (log10).
3.06

Consider the sequence AGCTAGGCATGGACCGGTTTTCCCGGTAATCCGTATTTGGT (site GGCTAGGCTAC) . State its measured recombinant UMI read abundance (log10).
0.0154

Consider the sequence GCTACTACATGGACCGGTTTTCCCGGTAATCCGTATTTGCC (site GCTACTCCTGG) . State its measured recombinant UMI read abundance (log10).
0

Consider the sequence CGGCGCACATGGACCGGTTTTCCCGGTAATCCGTATTTGTA (site CGGCGCACTTA) . State its measured recombinant UMI read abundance (log10).
1.57

Consider the sequence AAGCACGCATGGACCGGTTTTCCCGGTAATCCGTATTTGGG (site AAGGACGCTCC) . State its measured recombinant UMI read abundance (log10).
0.00889

* * *

Please respond with reported recombinant UMI read abundance (log10) for every item in the list.
Assay: recombinant UMI read abundance after kanamycin selection (control-corrected) (log10(CPM+1)); higher = more efficient recombination; extreme values may be limits of the assay; sequences stand for … in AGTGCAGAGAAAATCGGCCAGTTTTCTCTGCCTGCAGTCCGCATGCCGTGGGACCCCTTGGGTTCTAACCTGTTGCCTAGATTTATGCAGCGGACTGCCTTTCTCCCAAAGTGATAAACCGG…AGGTTGGTTTCACT; site = the 11-nt donor
Format: numeric value only, no unit, no commentary.

Consider the sequence GTGCATGCATGGACCGGTTTTCCCGGTAATCCGTATTTGGT (site GAGCATGCTAC) . State its measured recombinant UMI read abundance (log10).
0.0372

Consider the sequence ATGTAGCCATGGACCGGTTTTCCCGGTAATCCGTATTTGGC (site ATGTAGTCTGC) . State its measured recombinant UMI read abundance (log10).
1.33

Consider the sequence CTTCTCCCATGGACCGGTTTTCCCGGTAATCCGTATTTGTA (site CTTCTCGCTTA) . State its measured recombinant UMI read abundance (log10).
0.0148

Consider the sequence AAAGATTCATGGACCGGTTTTCCCGGTAATCCGTATTTGTT (site TAAGATTCTAA) . State its measured recombinant UMI read abundance (log10).
2.48

Consider the sequence AGCTTAGCATGGACCGGTTTTCCCGGTAATCCGTATTTGTT (site AGCCTAGCTAA) . State its measured recombinant UMI read abundance (log10).
0.261

Consider the sequence CGCCACACATGGACCGGTTTTCCCGGTAATCCGTATTTGTA (site CTCCACACTTA) . State its measured recombinant UMI read abundance (log10).
0.241

Consider the sequence CGATCTACATGGACCGGTTTTCCCGGTAATCCGTATTTGTT (site CGATCCACTAA) . State its measured recombinant UMI read abundance (log10).
0.0103

Consider the sequence TCCAACTCATGGACCGGTTTTCCCGGTAATCCGTATTTGCC (site TCCAATTCTGG) . State its measured recombinant UMI read abundance (log10).
0

Consider the sequence CAAGTCTCATGGACCGGTTTTCCCGGTAATCCGTATTTGGG (site CAAGTCTCTCC) . State its measured recombinant UMI read abundance (log10).
0.916
